Hello, the source for this data is ChEMBL document CHEMBL3868585, in case you need it.

Parameter Activity: see the listing below.
System: Raji
PROTOCOL: Inhibition of TPA-induced EBV-early antigen activation in human Raji cells assessed as remaining activity at 100 molar ratio per TPA after 48 hrs by immunofluorescence method relative to TPA
Type: cell-based
MEASUREMENT_PARAMETERS: human gammaherpesvirus 4

- COMPOUND_SMILES: "CC(=O)O[C@H]1[C@H](OC(=O)c2ccccc2)[C@@]2(C)[C@@H](OC(=O)/C=C/c3ccccc3)[C@@H](O)[C@@H]3[C@@H](O)[C@]2(OC3(C)C)[C@@](C)(O)[C@H]1OC(C)=O"
  UNITS: "%"
  Activity: 85
- COMPOUND_SMILES: "CC(=O)OC[C@]12[C@@H](OC(=O)c3ccco3)C[C@@H]3[C@@H](OC(=O)c4ccccc4)[C@]1(OC3(C)C)[C@@](C)(O)C[C@@H](OC(C)=O)[C@@H]2OC(C)=O"
  UNITS: "%"
  Activity: 81.9
- COMPOUND_SMILES: "CC(=O)O[C@H]1[C@H](OC(=O)c2ccccc2)[C@@]2(C)[C@@H](OC(=O)/C=C/c3ccccc3)[C@@H](O)[C@@H]3[C@@H](OC(C)=O)[C@]2(OC3(C)C)[C@@](C)(O)[C@H]1OC(C)=O"
  UNITS: "%"
  Activity: 88.6
